Test system: HepG2 cells (NRAS-Q61L)
Assay: Proliferation inhibition (CellTiter-Glo), HepG2
Format: cell-based, human
Conditions: Homo sapiens, 72 h; HepG2, 3 days; read-out: HepG2 Prolif. EC50
assay.metric: EC50

Assign EC50 to the following record: Cc1ccc2c(Nc3cccc(Cl)c3F)nccc2c1NC(=O)c1csc2c(N)ncnc12 [Belvarafenib, reference compound]
< 30 nM

* * *

Tested on: pERK in HCT-116 cells (KRAS G13D)
Experiment: Phospho-ERK inhibition (AlphaLISA SureFire Ultra p-ERK 1/2), HCT116
Assay type: cell-based, human
Details: HCT116 cells; class symbol
pIC50: −log10 of the molar value.
assay.metric: pIC50

Assign pIC50 to the following record: O=S(=O)(Nc1ccc(F)c(Nc2ncnc3ccc(-n4cnc5c(Cl)cccc54)nc23)c1F)c1cccc(Cl)c1Cl
> 6.30

Assign pIC50 to the following record: COc1cccc2c1ncn2-c1ccc2ncnc(Nc3c(F)ccc(NS(=O)(=O)c4cccc(Cl)c4Cl)c3F)c2n1
> 6.30

Assign pIC50 to the following record: O=S(=O)(CC1CCCO1)c1cn(-c2ccc3ncnc(Nc4c(F)ccc(NS(=O)(=O)c5cccc(Cl)c5Cl)c4F)c3n2)c2ccccc12 (centres unmarked)
6.00 to 6.30

Assign pIC50 to the following record: Cc1c(F)cccc1S(=O)(=O)Nc1ccc(F)c(Nc2ncnc3ccc(-n4cnc(CCC#N)c4)nc23)c1F
> 6.30

Assign pIC50 to the following record: CC(C)(CO)S(=O)(=O)c1cn(-c2ccc3ncnc(Nc4c(F)ccc(NS(=O)(=O)c5cccc(Cl)c5Cl)c4F)c3n2)c2ccccc12
> 6.30

* * *

Test system: pERK in SK-MEL30 cells (NRAS-Q61K)
Assay: Phospho-ERK inhibition (AlphaLISA), SK-MEL30
Format: cell-based, human
Settings: Homo sapiens, SK-MEL-30
pIC50: −log10 of the molar value.
assay.metric: pIC50

Assign pIC50 to the following record: Cc1ccc2c(Nc3cccc(Cl)c3F)nccc2c1NC(=O)c1csc2c(N)ncnc12 [Belvarafenib, reference compound]
> 7.52

* * *

Biological target: UniProt:P04049
Sequence (P04049 whole entry, looked up): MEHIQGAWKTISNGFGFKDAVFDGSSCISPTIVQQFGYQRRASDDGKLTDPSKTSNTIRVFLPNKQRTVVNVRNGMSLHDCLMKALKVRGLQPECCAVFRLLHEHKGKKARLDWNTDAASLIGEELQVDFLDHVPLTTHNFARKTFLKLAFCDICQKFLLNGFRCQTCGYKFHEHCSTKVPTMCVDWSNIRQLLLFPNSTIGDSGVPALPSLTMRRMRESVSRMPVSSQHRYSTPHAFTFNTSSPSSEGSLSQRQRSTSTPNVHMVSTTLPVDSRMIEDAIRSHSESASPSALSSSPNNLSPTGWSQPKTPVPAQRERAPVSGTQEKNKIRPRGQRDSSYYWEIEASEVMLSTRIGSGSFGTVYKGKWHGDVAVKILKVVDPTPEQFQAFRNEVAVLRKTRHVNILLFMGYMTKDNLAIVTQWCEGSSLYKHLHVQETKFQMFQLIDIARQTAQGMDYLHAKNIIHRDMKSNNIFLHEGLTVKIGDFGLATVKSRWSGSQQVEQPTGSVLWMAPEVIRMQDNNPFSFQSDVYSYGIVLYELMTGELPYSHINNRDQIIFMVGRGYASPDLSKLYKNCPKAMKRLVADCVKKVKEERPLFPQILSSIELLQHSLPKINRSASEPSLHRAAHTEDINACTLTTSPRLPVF
Assay: CRAF kinase activity assay (ADP-Glo)
Type: biochemical
Conditions: read-out: Kinase IC50 (nM) CRAF
Method: Compound preparation: solid samples of each substances in 1 dram vials were suspended in DMSO (Fisher Scientific) at a stock concentration of 20 mM. Stocks were kept at −20° C. and protected from light. […] BRAF and CRAF kinase reactions were carried out for a total of 2 hours at 30° C. and then stopped by ½ dilution in ADP-Glo Reagent (cat #V9102; Promega; part V912C). […] The effect of each compound dilution on BRAF and CRAF kinase activity was expressed as % inhibition and calculated as follows. […]
Please respond with reported IC50 for every item in the list.

Provide UniProt:P04049 IC50 reading for O=S(=O)(Nc1ccc(F)c(Nc2ncnc3ccc(-n4cnc5c(CN6CCC(O)CC6)cccc54)nc23)c1F)c1ccccc1Cl [Ex 229] .
10 to 50 nM

Provide UniProt:P04049 IC50 reading for O=S(=O)(Nc1ccc(F)c(Nc2ncnc3ccc(-n4cnc5ccccc54)nc23)c1F)c1ccccc1Cl [Example 8] .
< 10 nM

Provide UniProt:P04049 IC50 reading for NCC(=O)c1cn(-c2ccc3ncnc(Nc4c(F)ccc(NS(=O)(=O)c5ccccc5Cl)c4F)c3n2)c2ccccc12 [Example 223] .
> 50 nM

Provide UniProt:P04049 IC50 reading for Nc1ncnc2c1ncn2-c1ccc2ncnc(Nc3c(F)ccc(NS(=O)(=O)c4ccccc4Cl)c3F)c2n1 [Ex 89] .
> 50 nM

Provide UniProt:P04049 IC50 reading for Cc1scc(S(=O)(=O)Nc2ccc(F)c(Nc3ncnc4ccc(-n5cnc6ccccc65)nc34)c2F)c1C [Example 320] .
> 50 nM

Provide UniProt:P04049 IC50 reading for Cc1c(Cl)csc1S(=O)(=O)Nc1ccc(F)c(Nc2ncnc3ccc(-n4cnc5ccccc54)nc23)c1F [Example 315] .
< 10 nM

Provide UniProt:P04049 IC50 reading for COc1ccc(S(=O)(=O)Nc2ccc(F)c(Nc3ncnc4ccc(-n5cnc6c(C(N)=O)cccc65)nc34)c2F)c(C)c1 [Example 75] .
10 to 50 nM

Provide UniProt:P04049 IC50 reading for CN(C)c1nnc(-c2nn(-c3ccc4ncnc(Nc5c(F)ccc(NS(=O)(=O)c6cccc(Cl)c6Cl)c5F)c4n3)c3ccccc23)o1 [Example 209] .
10 to 50 nM

Provide UniProt:P04049 IC50 reading for O=S(=O)(Nc1ccc(F)c(Nc2ncnc3ccc(-n4cnc5c(-c6cccnc6)cccc54)nc23)c1F)c1ccccc1Cl [Example 243] .
< 10 nM

Provide UniProt:P04049 IC50 reading for Nc1cccc2c1ncn2-c1ccc2ncnc(Nc3c(F)ccc(NS(=O)(=O)c4ccccc4Cl)c3F)c2n1 [Example 83] .
< 10 nM

Provide UniProt:P04049 IC50 reading for O=S(=O)(Nc1ccc(F)c(Nc2ncnc3ccc(-n4nc(-c5ncc[nH]5)c5ccccc54)nc23)c1F)c1ccccc1Cl [Example 213] .
> 50 nM

Provide UniProt:P04049 IC50 reading for CNC(=O)c1cn(-c2ccc3ncnc(Nc4c(F)ccc(NS(=O)(=O)c5ccccc5Cl)c4F)c3n2)c2ccccc12 [Ex 86] .
10 to 50 nM

Provide UniProt:P04049 IC50 reading for O=S(=O)(Nc1ccc(F)c(Nc2ncnc3ccc(-n4cnc5c(CN6CC(O)C6)cccc54)nc23)c1F)c1ccccc1Cl [Ex 225] .
10 to 50 nM

Provide UniProt:P04049 IC50 reading for O=C(Nc1cccc2c1ncn2-c1ccc2ncnc(Nc3c(F)ccc(NS(=O)(=O)c4ccccc4Cl)c3F)c2n1)N1CCOCC1 [Example 149] .
10 to 50 nM

* * *

Tested on: pERK in HCT-116 cells (KRAS G13D)
Assay: Phospho-ERK inhibition (AlphaLISA SureFire Ultra p-ERK 1/2), HCT116
Type: cell-based, human
Conditions: HCT116 cells; Ymin in brackets
assay.metric: HCT116 pERK Ymin %

Assign HCT116 pERK Ymin % to the following record: COc1ccc(S(=O)(=O)Nc2ccc(F)c(Nc3ncnc4ccc(-n5cnc6c(C(N)=O)cccc65)nc34)c2F)c(C)c1
0%

Assign HCT116 pERK Ymin % to the following record: Nc1ncnc2c1ncn2-c1ccc2ncnc(Nc3c(F)ccc(NS(=O)(=O)c4ccccc4Cl)c3F)c2n1
8%

Assign HCT116 pERK Ymin % to the following record: O=S(=O)(Nc1ccc(F)c(Nc2ncnc3ccc(-n4cnc5c(CN6CC(O)C6)cccc54)nc23)c1F)c1ccccc1Cl
−8%

Assign HCT116 pERK Ymin % to the following record: Nc1cccc2c1nnn2-c1ccc2ncnc(Nc3c(F)ccc(NS(=O)(=O)c4ccccc4Cl)c3F)c2n1
−4.6%

Assign HCT116 pERK Ymin % to the following record: O=S(=O)(Nc1ccc(F)c(Nc2ncnc3ccc(-c4cncs4)nc23)c1F)c1ccccc1Cl
−3.6%

Assign HCT116 pERK Ymin % to the following record: COc1ccc(S(=O)(=O)Nc2ccc(F)c(Nc3ncnc4ccc(-c5cccc(CO)c5)nc34)c2F)c(C)c1
1%

Assign HCT116 pERK Ymin % to the following record: COc1ccc(S(=O)(=O)Nc2ccc(F)c(Nc3ncnc4ccc(-c5cnc(OC)nc5)nc34)c2F)c(C)c1
-8%

* * *

System: pERK in HCT-116 cells (KRAS G13D)
Assay: Phospho-ERK inhibition (AlphaLISA SureFire Ultra p-ERK 1/2), HCT116
Format: cell-based, human
Conditions: HCT116 cells
assay.metric: IC50

Assign IC50 to the following record: Cc1c(F)cccc1S(=O)(=O)Nc1ccc(F)c(Nc2ncnc3ccc(-n4ncc5c4CN(C)CC5)nc23)c1F [Example 664]
1000 to 10000 nM

Assign IC50 to the following record: Cc1ncc(-c2ccc3ncnc(Nc4c(F)ccc(NS(=O)(=O)c5cccc(Cl)c5Cl)c4F)c3n2)[nH]1 [Example 595]
1000 to 10000 nM

Assign IC50 to the following record: O=S(=O)(Nc1ccc(F)c(Nc2ncnc3ccc(-n4cnc5c(C6(CO)CC6)cccc54)nc23)c1F)c1cccc(Cl)c1Cl [Example 612]
< 500 nM

Assign IC50 to the following record: N#CC1(c2cccc3c2nnn3-c2ccc3ncnc(Nc4c(F)ccc(NS(=O)(=O)c5cccc(Cl)c5Cl)c4F)c3n2)CC1 [Example 610]
< 500 nM

Assign IC50 to the following record: O=S(=O)(Nc1ccc(F)c(Nc2ncnc3ccc(-c4cnc(N5CCOCC5)s4)nc23)c1F)c1cccc(Cl)c1Cl [Example 631]
< 500 nM

Assign IC50 to the following record: O=S1(=O)CCN(c2cccc3c2ncn3-c2ccc3ncnc(Nc4c(F)ccc(NS(=O)(=O)c5cccc(Cl)c5Cl)c4F)c3n2)CC1 [Example 628]
500 to 1000 nM

Assign IC50 to the following record: O=S(=O)(Nc1ccc(F)c(Nc2ncnc3ccc(-n4cnc5c(N6CCNCC6)cccc54)nc23)c1F)c1cccc(Cl)c1Cl [Example 634]
< 500 nM
